Recorded IC50 for the following molecules
target: integrin α4 β1 (Homo sapiens, UniProt P05556+P13612); construct: cell strain Jurkat (ATCC TIB-152) of human T cells, known to express integrin α4 β1; endogenous in cells; experiment: VCAM antagonist activity (VCAM-1/α4β1 binding assay), Jurkat cells binding to VCAM-1; conditions: Jurkat cells binding to recombinant human VCAM-1; 50% binding inhibition; read-out: Antagonistic Activity IC50 α 4 β 1/VCAM
Sequence (P13612 34-1032): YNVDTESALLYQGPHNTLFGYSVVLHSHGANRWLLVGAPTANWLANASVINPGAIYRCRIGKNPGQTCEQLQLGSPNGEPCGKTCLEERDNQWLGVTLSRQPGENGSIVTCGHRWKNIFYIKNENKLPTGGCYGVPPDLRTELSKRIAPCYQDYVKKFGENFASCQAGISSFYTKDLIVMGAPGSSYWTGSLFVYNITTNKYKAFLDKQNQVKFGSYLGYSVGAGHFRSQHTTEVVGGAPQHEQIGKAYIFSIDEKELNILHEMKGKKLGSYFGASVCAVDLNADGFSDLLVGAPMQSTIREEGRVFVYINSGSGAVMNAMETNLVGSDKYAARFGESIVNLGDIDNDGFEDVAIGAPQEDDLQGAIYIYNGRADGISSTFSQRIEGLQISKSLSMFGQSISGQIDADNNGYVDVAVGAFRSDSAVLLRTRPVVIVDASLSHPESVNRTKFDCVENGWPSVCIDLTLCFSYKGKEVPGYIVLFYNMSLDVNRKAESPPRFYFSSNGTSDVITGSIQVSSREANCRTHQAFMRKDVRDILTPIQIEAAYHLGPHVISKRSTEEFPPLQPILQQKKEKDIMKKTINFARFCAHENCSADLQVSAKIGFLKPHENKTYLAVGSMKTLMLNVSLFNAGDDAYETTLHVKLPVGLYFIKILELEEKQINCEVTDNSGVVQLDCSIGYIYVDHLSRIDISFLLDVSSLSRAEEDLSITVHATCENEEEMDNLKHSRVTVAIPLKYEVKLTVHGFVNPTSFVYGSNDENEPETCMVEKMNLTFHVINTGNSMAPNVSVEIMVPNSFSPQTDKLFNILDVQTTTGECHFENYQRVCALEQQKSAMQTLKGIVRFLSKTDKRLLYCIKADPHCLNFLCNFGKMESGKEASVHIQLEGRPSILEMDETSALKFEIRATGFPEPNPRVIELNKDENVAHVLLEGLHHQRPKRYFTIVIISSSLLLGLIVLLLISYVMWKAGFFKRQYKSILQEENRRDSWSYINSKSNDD
Sequence (P05556 21-798): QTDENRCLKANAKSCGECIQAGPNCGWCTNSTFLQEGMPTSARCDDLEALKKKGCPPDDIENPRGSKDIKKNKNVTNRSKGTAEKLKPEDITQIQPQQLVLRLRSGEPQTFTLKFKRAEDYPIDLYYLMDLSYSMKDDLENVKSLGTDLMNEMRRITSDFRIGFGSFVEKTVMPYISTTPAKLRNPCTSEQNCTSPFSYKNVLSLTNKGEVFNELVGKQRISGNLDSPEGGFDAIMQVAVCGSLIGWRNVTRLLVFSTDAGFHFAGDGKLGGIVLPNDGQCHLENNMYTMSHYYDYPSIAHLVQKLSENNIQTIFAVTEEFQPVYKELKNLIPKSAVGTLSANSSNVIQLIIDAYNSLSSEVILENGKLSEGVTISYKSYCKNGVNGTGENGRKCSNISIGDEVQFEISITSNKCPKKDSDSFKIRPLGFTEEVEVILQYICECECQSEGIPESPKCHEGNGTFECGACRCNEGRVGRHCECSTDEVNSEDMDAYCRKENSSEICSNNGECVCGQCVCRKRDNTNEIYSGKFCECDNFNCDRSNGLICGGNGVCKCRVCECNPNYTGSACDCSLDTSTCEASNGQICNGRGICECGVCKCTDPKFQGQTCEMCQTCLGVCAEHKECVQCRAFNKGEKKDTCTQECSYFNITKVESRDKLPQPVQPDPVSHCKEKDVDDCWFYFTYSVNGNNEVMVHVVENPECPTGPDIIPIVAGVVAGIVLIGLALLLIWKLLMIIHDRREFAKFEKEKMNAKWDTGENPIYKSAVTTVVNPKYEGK
A complete answer gives the number and then names the unit.

molecule | measured-endpoint | reported-result
Cc1cccc2c1C(=O)N(c1ccc(C[C@H](NC(=O)c3c(Cl)cc(NS(C)(=O)=O)cc3Cl)C(=O)O)cc1)C2=O [Example 84] | IC50 | 0.015 µM
O=C(N[C@@H](Cc1ccc(N2C(=O)c3cccc(OCc4ccccc4)c3C2=O)cc1)C(=O)O)c1c(Cl)cccc1Cl [Example 74] | IC50 | 1.2 µM
O=C(N[C@@H](Cc1ccc(N2C(=O)C3=C(SCCS3)C2=O)cc1)C(=O)O)c1c(Cl)cccc1Cl [Example 38] | IC50 | 0.22 µM
O=C(N[C@@H](Cc1ccc(N2C(=O)c3ccc(O)cc3C2=O)cc1)C(=O)O)c1c(Cl)cccc1Cl [Example 77] | IC50 | 0.77 µM
O=C(N[C@@H](Cc1ccc(N2C(=O)[C@@H]3CCCC[C@H]3C2=O)cc1)C(=O)O)c1c(Cl)cccc1Cl [Example 40] | IC50 | 0.24 µM

Reported IC50, molecule O=C(N[C@@H](Cc1ccc(N2C(=O)C3CC3C2=O)cc1)C(=O)O)c1c(Cl)cccc1Cl (stereo partly shown) [Example 46] : ____
1.7 µM

Item O=C(N[C@@H](Cc1ccc(N2CC=CCCC2=O)cc1)C(=O)O)c1c(Cl)cccc1Cl [Example 27] has what recorded IC50?
2.8 µM

State the recorded IC50 for this entry: O=C(N[C@@H](Cc1ccc(N2C(=O)C3=C(CCCC3)C2=O)cc1)C(=O)O)c1c(Cl)cccc1Cl [Example 37]
0.14 µM

Which IC50 reading was recorded for the molecule O=C(N[C@@H](Cc1ccc(N2CC=CC2=O)cc1)C(=O)O)c1c(Cl)cccc1Cl [Example 25] ?
5 µM

// lookup IC50 for O=C(N[C@@H](Cc1ccc(N2C(=O)[C@H]3CC=CC[C@H]3C2=O)cc1)C(=O)O)c1c(Cl)cccc1Cl [Example 45]
1.2 µM

Reported IC50, molecule O=C(N[C@@H](Cc1ccc(N2Cc3ccccc3C2=O)cc1)C(=O)O)c1c(Cl)cccc1Cl [Example 17] : ____
1.9 µM

* * *

Biological target: integrin α4β7 (Homo sapiens, UniProt P13612+P26010)
Construct: lymphoma cell strain RPMI-8866 of human B cells, known to express integrin α4β7; endogenous in cells
Sequence (P13612 34-1032): as the sequence (P13612 34-1032) above
Sequence (P26010 20-798): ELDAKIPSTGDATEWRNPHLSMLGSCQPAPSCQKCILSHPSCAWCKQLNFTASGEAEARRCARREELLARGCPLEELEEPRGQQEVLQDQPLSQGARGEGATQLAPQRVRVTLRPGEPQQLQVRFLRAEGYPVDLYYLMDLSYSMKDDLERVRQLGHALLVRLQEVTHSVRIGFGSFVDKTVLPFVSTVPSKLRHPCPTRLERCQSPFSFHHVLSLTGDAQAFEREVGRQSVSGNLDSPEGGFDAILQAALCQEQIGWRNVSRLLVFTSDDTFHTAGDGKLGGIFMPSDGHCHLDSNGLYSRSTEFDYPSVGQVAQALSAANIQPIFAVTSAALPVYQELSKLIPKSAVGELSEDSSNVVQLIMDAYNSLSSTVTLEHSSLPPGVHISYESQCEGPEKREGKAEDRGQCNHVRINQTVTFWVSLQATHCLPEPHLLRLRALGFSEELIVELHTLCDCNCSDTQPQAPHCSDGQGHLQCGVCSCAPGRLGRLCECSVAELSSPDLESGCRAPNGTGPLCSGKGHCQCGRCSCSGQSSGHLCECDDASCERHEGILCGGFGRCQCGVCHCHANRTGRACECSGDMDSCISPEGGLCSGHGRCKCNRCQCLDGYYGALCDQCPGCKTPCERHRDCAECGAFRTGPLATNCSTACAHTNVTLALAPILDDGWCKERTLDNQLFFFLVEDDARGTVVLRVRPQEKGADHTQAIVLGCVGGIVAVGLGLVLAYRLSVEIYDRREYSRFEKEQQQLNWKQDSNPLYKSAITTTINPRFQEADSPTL
Experiment: VCAM antagonistic activity (VCAM-1/α4β7 binding assay), RPMI-8866 cells binding to VCAM-1
Details: RPMI-8866 cells binding to recombinant human VCAM-1, binding buffer with 4 mM MnCl2; 50% binding inhibition; read-out: Antagonistic Activity IC50 α 4 β 7/VCAM
Description: VCAM Antagonistic Activity (VCAM-1/α4β7 Binding Assay) The capacity of a test substance antagonistic to the binding of lymphoma cell strain RPMI-8866 of human B cells, known to express integrin α4β7, to VCAM-1 was determined. […] RPMI-8866 cells were incubated in Dulbecco modified Eagle medium containing 10 μg/ml of Calcein-AM (Wako Pure Chemical Industries, Ltd.) (SIGMA, hereinafter referred to as “DMEM”) at 37° C. for 30 minutes to label with fluorescence. […]
The following compounds are listed with their measured IC50 values.
Provide the reading as a plain figure in nM.

Use the examples below as a reference point.
compound | IC50 [nM]
O=C(N[C@@H](Cc1ccc(N2C(=O)CC3(CCCC3)CC2=O)cc1)C(=O)O)c1c(Cl)cccc1Cl | 21
O=C(N[C@@H](Cc1ccc(N2C(=O)c3ccc(O)cc3C2=O)cc1)C(=O)O)c1c(Cl)cccc1Cl | 73
COc1ccc2c(c1)C(=O)N(c1ccc(C[C@H](NC(=O)c3c(Cl)cccc3Cl)C(=O)O)cc1)C2=O | 42

Given the entry O=C(N[C@@H](Cc1ccc(N2Cc3ccccc3C2=O)cc1)C(=O)O)c1c(Cl)cccc1Cl , what IC50 was observed with integrin α4β7 (Homo sapiens, UniProt P13612+P26010)?
140

Reported IC50 for integrin α4β7 (Homo sapiens, UniProt P13612+P26010), given O=C(N[C@@H](Cc1ccc(N2C(=O)c3ccc(OCc4ccccc4)cc3C2=O)cc1)C(=O)O)c1c(Cl)cccc1Cl ?
80

What IC50 appears in the records for this compound with integrin α4β7 (Homo sapiens, UniProt P13612+P26010)? Cc1ccc2c(c1)C(=O)N(c1ccc(C[C@H](NC(=O)c3c(Cl)cccc3Cl)C(=O)O)cc1)C2=O
11

Query for integrin α4β7 (Homo sapiens, UniProt P13612+P26010): what IC50 does the record show for O=C(N[C@@H](Cc1ccc(N2C(=O)[C@H]3CC[C@H](c4ccccc4)C[C@H]3C2=O)cc1)C(=O)O)c1c(Cl)cccc1Cl ?
92

Provide the documented IC50 with integrin α4β7 (Homo sapiens, UniProt P13612+P26010) as the system for CCOc1cccc2c1C(=O)N(c1ccc(C[C@H](NC(=O)c3c(Cl)cccc3Cl)C(=O)O)cc1)C2=O
8.5

State its IC50 on integrin α4β7 (Homo sapiens, UniProt P13612+P26010): O=C(N[C@@H](Cc1ccc(N2C(=O)c3cccc(OCc4ccccc4)c3C2=O)cc1)C(=O)O)c1c(Cl)cccc1Cl
110

IC50 of CCOc1ccc2c(c1)C(=O)N(c1ccc(C[C@H](NC(=O)c3c(Cl)cccc3Cl)C(=O)O)cc1)C2=O on integrin α4β7 (Homo sapiens, UniProt P13612+P26010)?
86

Given the entry Nc1cccc2c1C(=O)N(c1ccc(C[C@H](NC(=O)c3c(Cl)cccc3Cl)C(=O)O)cc1)C2=O , what IC50 was observed with integrin α4β7 (Homo sapiens, UniProt P13612+P26010)?
230

Recall the recorded IC50 for CC1CCC2C(=O)N(c3ccc(C[C@H](NC(=O)c4c(Cl)cccc4Cl)C(=O)O)cc3)C(=O)C2C1 (stereo partly shown) with integrin α4β7 (Homo sapiens, UniProt P13612+P26010) and state it.
43

Lab request: please report IC50 under test system integrin α4β7 (Homo sapiens, UniProt P13612+P26010) for O=C(N[C@@H](Cc1ccc(N2C(=O)C3=C(SCCS3)C2=O)cc1)C(=O)O)c1c(Cl)cccc1Cl
13

# returns recorded IC50 (system: integrin α4β7 (Homo sapiens, UniProt P13612+P26010)) for O=C(N[C@@H](Cc1ccc(N2C(=O)C3CC3C2=O)cc1)C(=O)O)c1c(Cl)cccc1Cl (stereo partly shown)
42

integrin α4β7 (Homo sapiens, UniProt P13612+P26010) / IC50 / O=C(N[C@@H](Cc1ccc(N2C(=O)[C@@H]3[C@H](C2=O)[C@@H]2C=C[C@H]3C2)cc1)C(=O)O)c1c(Cl)cccc1Cl : value?
21

Please state recorded IC50 (tested on integrin α4β7 (Homo sapiens, UniProt P13612+P26010)) of O=C(N[C@@H](Cc1ccc(N2C(=O)[C@H]3CC=CC[C@H]3C2=O)cc1)C(=O)O)c1c(Cl)cccc1Cl
19

Value wanted: IC50 (integrin α4β7 (Homo sapiens, UniProt P13612+P26010)) of entry Cc1cccc2c1C(=O)N(c1ccc(C[C@H](NC(=O)c3c(Cl)cncc3Cl)C(=O)O)cc1)C2=O
10

Param readout = IC50; param system = integrin α4β7 (Homo sapiens, UniProt P13612+P26010); param query = Cc1cccc2c1C(=O)N(c1ccc(C[C@H](NC(=O)c3c(Cl)cc(NS(C)(=O)=O)cc3Cl)C(=O)O)cc1)C2=O ; response: value
0.6

Form field - read-out: IC50; system: integrin α4β7 (Homo sapiens, UniProt P13612+P26010); submitted item: O=C(N[C@@H](Cc1ccc(N2C(=O)Cc3ccccc3C2=O)cc1)C(=O)O)c1c(Cl)cccc1Cl
34

Lab note: need IC50 with integrin α4β7 (Homo sapiens, UniProt P13612+P26010) for entry CC(=O)C1Cc2ccccc2C(=O)N1c1ccc(C[C@H](NC(=O)c2c(Cl)cccc2Cl)C(=O)O)cc1 (stereo partly shown) , please look it up.
39

Test system integrin α4β7 (Homo sapiens, UniProt P13612+P26010); read-out IC50; what value for O=C(N[C@@H](Cc1ccc(N2C(=O)c3ccccc3C2=O)cc1)C(=O)O)c1c(Cl)cccc1Cl ?
9.7

Give the reported IC50 for CN(C)C(=O)c1ccc2c(c1)C(=O)N(c1ccc(C[C@H](NC(=O)c3c(Cl)cccc3Cl)C(=O)O)cc1)C2=O (system: integrin α4β7 (Homo sapiens, UniProt P13612+P26010)).
8.9

For the record CCCCOc1cccc2c1C(=O)N(c1ccc(C[C@H](NC(=O)c3c(Cl)cccc3Cl)C(=O)O)cc1)C2=O , what value of IC50 is listed for integrin α4β7 (Homo sapiens, UniProt P13612+P26010)?
55

Record O=C(N[C@@H](Cc1ccc(N2CC=CCCC2=O)cc1)C(=O)O)c1c(Cl)cccc1Cl : what is its IC50 with integrin α4β7 (Homo sapiens, UniProt P13612+P26010)?
73

Provide value of IC50 for this record tested with integrin α4β7 (Homo sapiens, UniProt P13612+P26010): O=C(N[C@@H](Cc1ccc(N2C(=O)c3cccc4cccc(c34)C2=O)cc1)C(=O)O)c1c(Cl)cccc1Cl
21

Value wanted: IC50 (integrin α4β7 (Homo sapiens, UniProt P13612+P26010)) of entry O=C(N[C@@H](Cc1ccc(N2C(=O)Cc3ccccc3CC2=O)cc1)C(=O)O)c1c(Cl)cccc1Cl
900

Form entry - test system: integrin α4β7 (Homo sapiens, UniProt P13612+P26010); read-out: IC50; compound: O=C(N[C@@H](Cc1ccc(N2C(=O)[C@@H]3CCCC[C@H]3C2=O)cc1)C(=O)O)c1c(Cl)cccc1Cl
18

Value wanted: IC50 (integrin α4β7 (Homo sapiens, UniProt P13612+P26010)) of entry CC1(C)[C@H]2CC[C@]1(C)C(=O)N(c1ccc(C[C@H](NC(=O)c3c(Cl)cccc3Cl)C(=O)O)cc1)C2=O
60

Measured values drawn from patent US7452905B2 for this set.
